# credit: ChEMBL document CHEMBL4689842

System: HEK-293T
procedure_details: Multiplex assay against HEK293T
Format: toxicity, cell-based
measurement_setup: human, 48 h, 10 µM, compound concentration 10 uM, replicate 1
Each item that follows carries a reported Population Hoechst High Intensity Objects (%).
metric: Population Hoechst High Intensity Objects (%)

>>> val("COc1cc2ncn(-c3cc(OCc4ccccc4C(F)(F)F)c(C(N)=O)s3)c2cc1OC [GW843682X]")
12
>>> val("O=c1cc(N2CCOCC2)oc2c(-c3cccc4c3sc3ccccc34)cccc12")
17
>>> val("COc1ccccc1CN[C@H]1C2CCN(CC2)[C@H]1C(c1ccccc1)c1ccccc1")
13
>>> val("COc1ccc(-c2ccc3ncc4c(c3c2)n(-c2ccc(N3CCNCC3)c(C(F)(F)F)c2)c(=O)n4C)cn1.O=C(O)/C=C\\C(=O)O")
42
>>> val("CC1=C(C(=O)Nc2cc3cn[nH]c3cc2F)C(c2ccc(C(F)(F)F)cc2)CC(=O)N1 (stereo unspecified)")
14
>>> val("Cc1c[nH]c2nccc(Oc3c(F)cc(Nc4cc(Cl)nc(N)n4)cc3F)c12")
9
>>> val("CCCSc1nc(N[C@@H]2C[C@H]2c2ccc(F)c(F)c2)c2nnn([C@@H]3C[C@H](OCCO)[C@@H](O)[C@H]3O)c2n1")
24
>>> val("CC(C)c1noc(N2CCC(COc3ccc(-c4ccc(S(C)(=O)=O)cc4)nc3)CC2)n1")
25
>>> val("CN1CCN(Cc2ccc(Nc3ncc(Cl)c(Nc4ccccc4S(=O)(=O)N(C)C)n3)cc2)CC1")
15
>>> val("CNC(=O)Nc1ccc(-c2nc(N3CC4CCC(C3)O4)c3cnn(C4CCC5(CC4)OCCO5)c3n2)cc1")
23
>>> val("COc1cc(Nc2nccc(-c3cnn4nc(OC)ccc34)n2)cc(C(F)(F)F)c1")
25
>>> val("Cc1ccc2c(c1)c1c(n2CCc2ccc(C)nc2)CCN(C)C1 [LATREPIRDINE]")
24
>>> val("CC(C)(C)NC[C@H](O)COc1nsnc1N1CCOCC1")
5
>>> val("Cc1cccc(CN2CCN(C(c3ccccc3)c3ccc(Cl)cc3)CC2)c1.Cl.Cl (stereo unspecified)")
12
>>> val("C[C@]12CC[C@@H]3c4ccc(O)cc4CC[C@H]3[C@@H]1CC[C@@H]2O")
11
>>> val("CCOC(=O)Nc1cc(-c2ccc(C)c(NS(C)(=O)=O)c2)nn2c(C)nnc12")
11

----------
Listed here are compounds together with their documented Population Healthy Nuclei (%).
Test system: Fibroblast
procedure_details: Multiplex assay against human fibroblast
Type: toxicity, cell-based
measurement_setup: 12 h, 10 µM, compound concentration 10 uM, replicate 2
metric: Population Healthy Nuclei (%)

>>> val("CC(C)Oc1ccccc1C(=O)Nc1ccccc1C(=O)Nc1cccc(S(=O)(=O)C(F)(F)F)c1")
71
>>> val("CC1=C(C(=O)Nc2cc3cn[nH]c3cc2F)C(c2ccc(C(F)(F)F)cc2)CC(=O)N1 (centres undefined)")
70
>>> val("CCc1nn(CCCN2CCN(c3cccc(Cl)c3)CC2)c(=O)n1CCOc1ccccc1.Cl [NEFAZODONE HYDROCHLORIDE]")
69
>>> val("Cc1cccc(CN2CCN(C(c3ccccc3)c3ccc(Cl)cc3)CC2)c1.Cl.Cl (centres undefined)")
72

----------
Tested on: U2OS
procedure_details: Multiplex assay against U2OS
Format: toxicity, cell-based
measurement_setup: human, 12 h, 1 µM, compound concentration 1 uM, replicate 1
metric: Population Healthy Nuclei (%)

>>> val("CC1=C(C(=O)Nc2cc3cn[nH]c3cc2F)C(c2ccc(C(F)(F)F)cc2)CC(=O)N1 (stereo not drawn)")
78
>>> val("C[C@]12CC[C@@H]3c4ccc(O)cc4CC[C@H]3[C@@H]1CC[C@@H]2O [ESTRADIOL]")
82
>>> val("CC(C)(C)NC[C@H](O)COc1nsnc1N1CCOCC1 [TIMOLOL]")
80
